Biological target: T1, human TROP2 protein (Sino Biological, #10428-H08H) (human, UniProt P09758 27-274)
T1 construct: bought protein; also called human Trop2 protein antigen (His tag); not shown: His tag
T1 sequence (looked up): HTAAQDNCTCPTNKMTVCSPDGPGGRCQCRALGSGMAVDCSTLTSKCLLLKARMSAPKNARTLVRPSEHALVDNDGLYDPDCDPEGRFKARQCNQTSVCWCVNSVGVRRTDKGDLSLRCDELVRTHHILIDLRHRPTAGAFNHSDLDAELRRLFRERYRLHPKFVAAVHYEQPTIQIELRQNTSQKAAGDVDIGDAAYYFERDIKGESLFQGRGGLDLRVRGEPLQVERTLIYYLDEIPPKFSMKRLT
Experiment: BLI, Octet RED96, AHC sensor
Each item that follows carries a reported koff.
Note: unit s⁻¹ is implicit; provide only the numeric part.

Example cases with answers are listed next.
>>> observed("PR001134 (antibody, human IgG1, kappa, V domains shown, fully human IgG1/kappa; also called antibody No. (6)) VH: QVQLVESGGGVVQPGRSLRVSCIASGFFFSSYGMHWVRQAPGKGLEWVAVIWYDGSNEDYVDSVKGRFTISRDNSKNTLYLQMNSLRGEDTAMYYCARGGYNSGWWAFDIWGQGTMVTVSS VL: DIQMTQSPSSLSASVGDRVTITCRASQGISHFLAWYQQKPGKVPKLLIYAASTLQSGVPSRFSGSGSGTDFTLTISSLQPEDVATYYCQKFNSAPLTFGGGTKVEIKR")
0.000451
>>> observed("PR001160 (antibody, human IgG1, kappa, V domains shown, fully human IgG1/kappa; also called antibody No. (22)) VH: QVQLVESGGGVVQPGRSLRLSCEASGFTFSHYGMHWVRQAPGKGLEWVAVIWYDGIMKNYIESVKGRFTISRDNSKNTLYLQMNRLRAEDTAVYYCARDGGFGELNYYGLDVWGQGTTVTVSS VL: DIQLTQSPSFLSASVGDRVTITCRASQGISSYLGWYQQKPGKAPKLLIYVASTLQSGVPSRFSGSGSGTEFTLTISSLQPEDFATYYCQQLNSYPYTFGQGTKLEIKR")
"9.48e-05"

For PR001155 (antibody, human IgG1, kappa, V domains shown, fully human IgG1/kappa; also called antibody No. (18)) VH: QVQLVQSGGGVVQPGRSLRLSCAASGFTFSHYGMHWVRQAPGKGLEWVAVIWYDGIKKYYVESVKGRFTISRDNSKNTLYLQMNRLRAEDTAVYYCARDGGFGELNYYGLDVWGQGTTVTVSS VL: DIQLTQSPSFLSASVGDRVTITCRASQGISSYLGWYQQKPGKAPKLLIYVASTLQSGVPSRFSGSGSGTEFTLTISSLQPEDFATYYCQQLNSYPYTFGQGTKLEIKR , what is its reported koff?
0.000144

Where do these numbers come from? They come from patent US20240067748A1.
